# BAF3-FGFR3 (MIN IL3) pIC50 values compiled below
- assayed.system: Ba/F3-FGFR3-transfected cells (Homo sapiens, UniProt P22607)
- Construct: BAF3-FGFR3 (MIN IL3) pIC50; other: minus IL3
- Sequence (P22607 whole entry, change not shown): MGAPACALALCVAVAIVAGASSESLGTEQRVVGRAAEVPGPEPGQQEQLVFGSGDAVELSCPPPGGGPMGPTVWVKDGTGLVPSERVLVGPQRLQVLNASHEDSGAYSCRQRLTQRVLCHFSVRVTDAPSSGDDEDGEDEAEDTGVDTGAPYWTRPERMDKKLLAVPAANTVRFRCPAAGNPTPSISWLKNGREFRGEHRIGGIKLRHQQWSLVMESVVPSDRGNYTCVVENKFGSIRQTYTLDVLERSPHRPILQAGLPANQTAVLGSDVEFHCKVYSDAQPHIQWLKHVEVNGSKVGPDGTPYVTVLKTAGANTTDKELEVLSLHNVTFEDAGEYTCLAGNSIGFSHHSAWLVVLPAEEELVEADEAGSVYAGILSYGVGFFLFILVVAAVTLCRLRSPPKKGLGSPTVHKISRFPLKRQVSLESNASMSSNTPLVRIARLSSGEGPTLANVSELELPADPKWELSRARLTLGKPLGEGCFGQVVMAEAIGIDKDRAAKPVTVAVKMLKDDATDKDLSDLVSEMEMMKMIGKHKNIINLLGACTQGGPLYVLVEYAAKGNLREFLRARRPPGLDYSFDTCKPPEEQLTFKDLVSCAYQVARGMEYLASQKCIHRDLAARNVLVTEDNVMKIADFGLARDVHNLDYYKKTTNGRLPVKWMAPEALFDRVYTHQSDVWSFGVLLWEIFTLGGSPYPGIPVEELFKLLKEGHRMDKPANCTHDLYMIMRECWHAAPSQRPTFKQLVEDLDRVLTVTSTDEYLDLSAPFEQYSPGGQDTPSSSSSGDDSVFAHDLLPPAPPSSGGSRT
- measurement.protocol: Ba/F3-FGFR3 (minus IL3 or plus IL3) cellular proliferation assay
- Assay type: cell-based
- stated.conditions: minus IL3

COc1cc(OC)cc(C(O)(CNCCNC(C)C)c2ccc3ncc(-c4cnn(C)c4)nc3c2)c1 (single isomer, unassigned) [Compound 6] ... <5
COc1cc(OC)cc(/C(=C/CN(C)C)c2ccc3ncc(-c4cnn(C)c4)nc3c2)c1 ... ~5.13

// below: BAF3-FGFR3 (MIN IL3) pIC50 requested for another molecule
BAF3-FGFR3 (MIN IL3) pIC50 lookup needed for COc1cc(OC)cc(C(O)(CNCCNC(C)C)c2ccc3ncc(-c4cnn(C)c4)nc3c2)c1 (single isomer, unassigned) [Compound 5] , thanks. <5

Sourced from patent US9290478B2
